Target sequence: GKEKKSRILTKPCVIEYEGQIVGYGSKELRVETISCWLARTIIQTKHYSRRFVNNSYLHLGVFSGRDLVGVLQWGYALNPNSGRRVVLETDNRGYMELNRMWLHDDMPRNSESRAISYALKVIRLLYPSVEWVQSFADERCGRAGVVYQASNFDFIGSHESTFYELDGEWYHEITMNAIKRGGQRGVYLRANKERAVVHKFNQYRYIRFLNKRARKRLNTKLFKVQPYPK
PROPERTY_MEASURED: Kd

Task item: Returns the measured Kd for the input compound. Input: "CC(=O)SCCNC(=O)CCNC(=O)[C@H](O)C(C)(C)COP(=O)(O)OP(=O)(O)OC[C@H]1O[C@@H](n2cnc3c(N)ncnc32)[C@H](O)[C@@H]1OP(=O)(O)O"
Reply: ~49 µM
